Hepatotoxicity (moderate): recorded values
test: Highest frequency of moderate liver toxicity observed during clinical trials, expressed as a percentage. [column '% BIOL' in source]; settings: human
Reply with just the number (in %).

{"columns": ["compound", "scaleUnit", "Hepatotoxicity (moderate)"],
 "data": [
  ["CCCCCOC(=O)Nc1nc(=O)n([C@@H]2O[C@H](C)[C@@H](O)[C@H]2O)cc1F", "%", 61.8],
  ["CC(C)/N=C/Nc1ccc(-c2c[nH]cn2)cc1", "%", 3.3],
  ["C=CCC1(C(C)C#CCC)C(=O)N=C(O)N(C)C1=O (stereo not given)", "%", 0],
  ["COc1ccc(C(=O)Nc2ccccc2CCC2CCCCN2C)cc1 (stereo not given) [ENCAINIDE]", "%", 0]
]}

Now take the following compound into account.
According to the records, this compound CC(C)(N)C(=O)N[C@H](COCc1ccccc1)C(=O)N1CCC2(CC1)CN(S(C)(=O)=O)c1ccccc12 displays Hepatotoxicity (moderate) of 21.4

====

conditions: human, serum
Decide by Hepatotoxicity (acute): equal to or exceeding 1 means Yes, less means No.

Examples from the recorded data:
{"columns": ["molecule", "class"],
 "data": [
  ["C#C[C@]1(O)CC[C@H]2[C@@H]3CCC4=CCCC[C@@H]4[C@H]3CC[C@@]21C [LYNESTRENOL]", "Yes"],
  ["N=C(N)NC(=O)c1nc(Cl)c(N)nc1N [AMILORIDE]", "No"],
  ["CCOC(=O)OC(C)OC(=O)[C@@H]1N2C(=O)[C@@H](/N=C/N3CCCCCC3)[C@H]2SC1(C)C (some centres undefined) [BACMECILLINAM]", "No"],
  ["CCCCc1oc2ccccc2c1C(=O)c1cc(I)c(OCCN(CC)CC)c(I)c1 [AMIODARONE]", "Yes"],
  ["CC(=O)CCC1C(=O)N(c2ccccc2)N(c2ccccc2)C1=O [KEBUZONE]", "Yes"],
  ["CC(C)NNC(=O)c1ccncc1 [IPRONIAZID]", "Yes"]
]}

Decide: is the reported value of Hepatotoxicity (acute) for CCc1oc2ccccc2c1C(=O)c1ccc(O)cc1 [BENZARONE] equal to or greater than 1?
Yes

Decide: is the reported value of Hepatotoxicity (acute) for CCN(CC)CCCN(c1ccccc1)C1Cc2ccccc2C1 [APRINDINE] equal to or greater than 1?
Yes

====

conditions: human
Hepatotoxicity (granulomatous hepatitis): recorded values
// no unit string in output, number only

Consider the worked cases shown below.
{"columns": ["compound", "Hepatotoxicity (granulomatous hepatitis)"],
 "data": [
  ["COc1ccc2c(C(=O)c3ccc(Cl)cc3)c(C)n(CC(=O)O)c2c1", 0],
  ["CCN1CCC[C@H]1CNC(=O)c1c(O)c(Cl)cc(Cl)c1OC [RACLOPRIDE]", 0],
  ["Cc1oncc1C(=O)Nc1ccc(C(F)(F)F)cc1 [LEFLUNOMIDE]", 0]
]}

According to the records, this compound CNC(=C[N+](=O)[O-])NCCSCc1ccc(CN(C)C)o1 displays Hepatotoxicity (granulomatous hepatitis) of 1

According to the records, this compound CCC(=O)NS(=O)(=O)c1ccc(-c2c(-c3ccccc3)noc2C)cc1 displays Hepatotoxicity (granulomatous hepatitis) of 0

====

conditions: human
Hepatotoxicity (severe hepatitis): recorded values
// no unit string in output, number only

Consider the worked cases shown below.
{"columns": ["compound", "Hepatotoxicity (severe hepatitis)"],
 "data": [
  ["CCOc1ccc(NC(C)=O)cc1", 0],
  ["O=NN(CCCl)C(=O)N[C@H]1C(O)O[C@H](CO)[C@@H](O)[C@@H]1O (stereo partly specified)", 0],
  ["CCc1ccc(CCOc2ccc(CC3SC(=O)NC3=O)cc2)nc1 (stereo unspecified)", 1],
  ["CN[C@@H]1[C@@H](O)[C@@H](O[C@@H]2[C@@H](O)[C@H](O[C@H]3O[C@H](CN)[C@@H](O)[C@H](O)[C@H]3O)[C@@H](N)C[C@H]2NC(=O)[C@@H](O)CN)OC[C@]1(C)O", 0],
  ["O=c1[nH]c(=O)n([C@H]2C[C@H](O)[C@@H](CO)O2)cc1I", 0]
]}

According to the records, this compound Cn1nnnc1SCC1=C(C(=O)O)N2C(=O)[C@@H](NC(=O)[C@H](O)c3ccccc3)[C@H]2SC1 displays Hepatotoxicity (severe hepatitis) of 0

According to the records, this compound N#C[C@H](O[C@@H]1O[C@H](CO[C@@H]2O[C@H](CO)[C@@H](O)[C@H](O)[C@H]2O)[C@@H](O)[C@H](O)[C@H]1O)c1ccccc1 displays Hepatotoxicity (severe hepatitis) of 1

According to the records, this compound CNC(=O)[C@@H](NC(=O)[C@H](CC(C)C)[C@H](O)C(=O)NO)C(C)(C)C displays Hepatotoxicity (severe hepatitis) of 0

According to the records, this compound OCC(Br)(Br)Br displays Hepatotoxicity (severe hepatitis) of 15

According to the records, this compound CC(C)C(=O)Nc1ccc([N+](=O)[O-])c(C(F)(F)F)c1 [FLUTAMIDE] displays Hepatotoxicity (severe hepatitis) of 16

====

conditions: human
experimentalReadout: Hepatotoxicity (severe hepatitis)
// no unit string in output, number only

{"columns": ["compound", "Hepatotoxicity (severe hepatitis)"],
 "data": [
  ["C[C@H](C(=O)O)c1ccc2oc(-c3ccc(F)cc3)nc2c1", 0],
  ["O=C(O)C1=C(CSc2nnnn2CS(=O)(=O)O)CS[C@@H]2[C@H](NC(=O)[C@H](O)c3ccccc3)C(=O)N12", 0],
  ["COc1cc2nc(N3CCN(C(=O)C4CCCO4)CC3)nc(N)c2cc1OC (stereo not drawn)", 0],
  ["CCCCCCCCCCCCCCCCSCC(COC)COP(=O)([O-])OCC[N+](C)(C)C (stereo not drawn)", 0],
  ["CN1CCOC(c2ccccc2)c2ccccc2C1 (stereo not drawn)", 0],
  ["CC(=O)O[C@@]12CO[C@@H]1C[C@H](O)[C@@]1(C)C(=O)[C@H](O)C3=C(C)[C@@H](OC(=O)[C@H](O)[C@@H](NC(=O)OC(C)(C)C)c4ccccc4)C[C@@](O)([C@@H](OC(=O)c4ccccc4)[C@H]21)C3(C)C.O.O.O", 1],
  ["O=C(Cn1c(=O)sc2ccc(Cl)cc21)N1CCN(CCO)CC1 [TIARAMIDE]", 0]
]}

According to the records, this compound NNC(=O)c1ccncc1 displays Hepatotoxicity (severe hepatitis) of 40

====

Hepatotoxicity (acute): recorded values
conditions: human, serum

According to the records, this molecule CC1(C)O[C@@H]2[C@@H](CO[C@@]3(COS(N)(=O)=O)OC(C)(C)O[C@@H]23)O1 [TOPIRAMATE] displays Hepatotoxicity (acute) of 2

According to the records, this molecule O=C(O)c1ccccc1O.O=C(O)c1ccccc1O.O=C(O)c1ccccc1O displays Hepatotoxicity (acute) of 1

According to the records, this molecule Cc1ccc(C(=O)c2cc(O)c(O)c([N+](=O)[O-])c2)cc1 displays Hepatotoxicity (acute) of 6

According to the records, this molecule COc1cc2nc(N(C)CCCNC(=O)C3CCCO3)nc(N)c2cc1OC (centres undefined) displays Hepatotoxicity (acute) of 1

According to the records, this molecule N[C@@H]1CON=C1O displays Hepatotoxicity (acute) of 2

According to the records, this molecule CCc1nc(N)nc(N)c1-c1ccc(Cl)cc1.Nc1ccc(S(=O)(=O)c2ccc(N)cc2)cc1 displays Hepatotoxicity (acute) of 3

According to the records, this molecule Cc1onc(-c2ccccc2Cl)c1C(=O)N[C@@H]1C(=O)N2[C@@H]1SC(C)(C)[C@@H]2C(=O)O displays Hepatotoxicity (acute) of 9

According to the records, this molecule NCCCNc1ccc2c3c(nn2CCNCCO)-c2c(O)ccc(O)c2C(=O)c13 displays Hepatotoxicity (acute) of 0

According to the records, this molecule CCCCNc1cc(C(=O)O)cc(S(N)(=O)=O)c1Oc1ccccc1 [BUMETANIDE] displays Hepatotoxicity (acute) of 0

====

conditions: human
experimentalReadout: Hepatotoxicity (cytolytic)
// no unit string in output, number only

Consider the worked cases shown below.
{"columns": ["structureString", "experimentalReadout", "valueMeasured"],
 "data": [
  ["CC(C)CN(C[C@@H](O)[C@H](Cc1ccccc1)NC(=O)O[C@H]1CCOC1)S(=O)(=O)c1ccc(N)cc1", "Hepatotoxicity (cytolytic)", 3],
  ["Cc1c(N(C)C)c(=O)n(-c2ccccc2)n1C", "Hepatotoxicity (cytolytic)", 3]
]}

According to the records, this compound COc1cc2[nH]c(C)c(CCN3CCN(c4ccccc4)CC3)c2cc1OC displays Hepatotoxicity (cytolytic) of 0

According to the records, this compound CO[C@@H]1[C@@H](O[C@@H]2O[C@H](C)[C@@H](O[C@H]3C[C@@](C)(O)[C@@H](OC(=O)CC(C)C)[C@H](C)O3)[C@H](N(C)C)[C@H]2O)[C@@H](CC=O)C[C@@H](C)[C@@H](O)/C=C/C=C/C[C@@H](C)OC(=O)C[C@H]1OC(C)=O displays Hepatotoxicity (cytolytic) of 6
